Cited source for all entries: paper PMC5864917

Target: T1, SERA5 SE36 (Plasmodium falciparum, UniProt Q9TY95)
T1 chain: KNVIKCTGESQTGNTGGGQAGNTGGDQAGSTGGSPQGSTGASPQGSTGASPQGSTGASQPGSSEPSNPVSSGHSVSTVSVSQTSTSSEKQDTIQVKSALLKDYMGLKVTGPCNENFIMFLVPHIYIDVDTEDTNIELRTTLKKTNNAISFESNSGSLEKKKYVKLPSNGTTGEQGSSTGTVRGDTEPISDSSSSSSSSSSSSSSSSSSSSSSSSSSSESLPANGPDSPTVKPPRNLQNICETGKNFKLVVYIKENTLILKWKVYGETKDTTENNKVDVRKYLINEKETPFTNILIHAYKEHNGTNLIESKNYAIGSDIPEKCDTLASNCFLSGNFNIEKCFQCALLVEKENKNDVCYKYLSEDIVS
Test: SPR
experimental endpoint: pKd
// pKd here means minus log10 of the molar concentration (mol/L)

Query block: For Vitronectin (protein) ATWLSLFSSEESNLGANNYDDYRMDWLVPATCEPIQSVFFFSGDKYYRVNLRTRRVDTVDPPYPRSIAQYWLGCPAPGHL , what is its reported pKd?
Result block: 8.43
